Assay: Stability testing of peptides in human plasma or blood
Format: in vitro ADME
Settings: human plasma, 4 h, 37° C., read-out: Human Plasma stability % remaining 4 h

- Substance: "Ac-VIKLSGRELVRAQIAISGMSTWSKRSL-NH2 [AcB7-33 C11.23S, reference compound]"
  Display unit: "%"
  remaining at 4 h, 5 µM: 18
- Substance: "H-VIKLSGRELVRAQIAISGMSTWSKRSL-NH2 [B7-33 C11.23S, reference compound]"
  Display unit: "%"
  remaining at 4 h, 5 µM: 3
- Substance: "Ac-VIKLSGRELVRAQIAISGMSTWSKKKK-NH2 [KKKK(AcB7-29 C11.23S), reference compound]"
  Display unit: "%"
  remaining at 4 h, 5 µM: 31

Origin of values: patent US10988523B2
